test system: normal human lung fibroblast cell line, MRC-5; assay: Cytotoxicity against normal lung fibroblasts MRC-5; format: cell-based; details: MRC5
readoutKind: pIC50
The value called pIC50 is obtained by taking minus log10 of the concentration in mol/L.

Prompt: For COc1cc2c(cc1O)c1c(c3cc(OC)c(OC)cc32)CC2CCCCN2C1 (stereo not shown) [Compound 20] , what is its reported pIC50?
Completion: 7.59

====

readoutKind: melting point

1) COc1cc2c3c(c4c(OC)c(OC)c(OC)cc4c2cc1OC)CC1CCCCN1C3 (centres unmarked): 191 to 192 °C

Prompt: Given COc1ccc2c(c1)c1c(c3cc(OC)c(OC)cc32)CC2CCCCN2C1 (centres unmarked) , state its recorded melting point.
Completion: 156 to 158 °C

Prompt: Need melting point of COc1cc2c3c(c4c(OC)c(OC)c(OC)cc4c2cc1OC)CN1CCCC1C3 (centres unmarked) , thanks.
Completion: 231 °C (dec.)

Prompt: I have this compound here, COc1cc2c3c(c4c(OC)c(OC)c(OC)cc4c2cc1OC)CC1CCCN1C3 (centres unmarked) , and I need its recorded melting point.
Completion: 225 to 226 °C

Prompt: What does the data say about its melting point? Entry: COc1ccc2c(c1)c1c(c3cc(OC)c(OC)cc32)CN2CCCCC2C1 (centres unmarked)
Completion: 182 to 184 °C

====

tested on: prostate carcinoma (DU145) cells; test: Cell viability (MTT) assay, DU145; type: cell-based, human; conditions: Homo sapiens, DU-145, 48 h treatment
Label Satisfied when IC50 is strictly below 300 nM; at or above that, label Not satisfied.

Example entries and their recorded answers appear below.
1) COc1cc2c3c(c4c(OC)c(OC)c(OC)cc4c2cc1OC)CC1CCCN1C3 (stereo not shown) [Compound 4a]: Not satisfied
2) COc1cc2c3c(c4c(OC)c(OC)c(OC)cc4c2cc1OC)CN1CCCC1C3 (stereo not shown) [Compound 4h]: Not satisfied
3) COc1cc2c3c(c4c(OC)c(OC)c(OC)cc4c2cc1OC)CC1CCCCN1C3 (stereo not shown) [Compound 5a]: Satisfied

Below: the item to evaluate.
Prompt: Lab note: IC50 threshold 300 nM. Does this compound come in strictly under it? COc1ccc2c(c1)c1c(c3cc(OC)c(OC)cc32)CN2CCCCC2C1 (stereo not shown) [Compound 5c]
Completion: Satisfied

====

Attribute: melting point

Recorded melting point, per entry:
1) COc1cc2c3c(c4c(OC)c(OC)c(OC)cc4c2cc1OC)CN1CCCCC1C3 (centres unmarked) [Compound 5h]: 211 °C (dec.)
2) COc1cc2c3c(c4cc(OC)c(OC)c(OC)c4c2cc1OC)CN1CCCC1C3 (centres unmarked) [Compound 4e]: 169 to 170 °C
3) COc1cc2c(cc1O)c1c(c3cc(OC)c(OC)cc32)CC2CCCCN2C1 (centres unmarked) [Compound 20]: 114 to 115 °C
4) COc1ccc2c(c1)c1c(c3cc(OC)c(OC)cc32)CN2CCCC2C1 (centres unmarked) [Compound 4c]: 187 to 189 °C

Here is the next item to consider.
Prompt: Request the reported melting point associated with COc1cc2c3c(c4cc(OC)c(OC)c(OC)c4c2cc1OC)CN1CCCCC1C3 (centres unmarked) [Compound 5e]
Completion: 166 to 167 °C
